The compounds below have reported pIC50 for Disintegrin and metalloproteinase domain-containing protein 17 (Homo sapiens).
pIC50: −log10 of the molar value.
metric: pIC50

(1) CC(C)[C@H](C(=O)NO)N(CC(=O)NCCc1ccc(S(N)(=O)=O)cc1)S(=O)(=O)c1ccc(Oc2ccccc2)cc1
(2) CC(C)[C@H](C(=O)NO)N(CC(=O)O)S(=O)(=O)c1ccc(Oc2ccccc2)cc1
Task: Which of the two gives a bigger number for pIC50: 1 or 2 ? // respond with label for picked entry
Result: 1
(1: 7.26, 2: 5.64)

###

# tested.target: Matrix metalloproteinase-9 (Homo sapiens)
# Sequence (P14780 whole entry): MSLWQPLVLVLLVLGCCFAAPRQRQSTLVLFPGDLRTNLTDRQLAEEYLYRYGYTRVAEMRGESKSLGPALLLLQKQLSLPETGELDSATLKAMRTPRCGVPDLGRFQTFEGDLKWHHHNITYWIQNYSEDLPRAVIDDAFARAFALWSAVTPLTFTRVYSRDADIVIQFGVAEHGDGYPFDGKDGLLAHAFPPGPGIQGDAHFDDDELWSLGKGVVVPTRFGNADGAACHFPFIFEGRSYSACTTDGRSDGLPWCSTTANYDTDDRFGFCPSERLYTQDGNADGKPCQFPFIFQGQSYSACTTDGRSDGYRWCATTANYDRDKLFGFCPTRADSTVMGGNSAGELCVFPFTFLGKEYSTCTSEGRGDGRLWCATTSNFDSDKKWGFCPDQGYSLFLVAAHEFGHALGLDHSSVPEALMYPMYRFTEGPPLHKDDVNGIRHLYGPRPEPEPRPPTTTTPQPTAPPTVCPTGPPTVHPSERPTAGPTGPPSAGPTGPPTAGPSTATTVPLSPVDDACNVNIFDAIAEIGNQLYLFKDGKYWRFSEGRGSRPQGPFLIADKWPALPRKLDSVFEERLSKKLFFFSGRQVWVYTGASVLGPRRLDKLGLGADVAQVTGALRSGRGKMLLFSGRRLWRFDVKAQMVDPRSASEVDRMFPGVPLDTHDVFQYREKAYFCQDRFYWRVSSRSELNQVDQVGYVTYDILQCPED
metric: IC50 (nM)

mol.smiles	unit.abbreviation	recorded.number
COc1ccc(S(=O)(=O)N(CC(=O)O)CC(=O)NO)cc1	nM	322
NS(=O)(=O)c1ccc(CCNC(=O)CN(CC(=O)NO)S(=O)(=O)c2ccc(-c3ccccc3)cc2)cc1	nM	66

(1) COc1ccc(S(=O)(=O)N(CC(=O)O)[C@@H](C(=O)NO)C(C)C)cc1
(2) CC(C)[C@H](C(=O)NO)N(CC(=O)NCCc1ccc(S(N)(=O)=O)cc1)S(=O)(=O)c1ccc(Oc2ccccc2)cc1
Task: Which of the two gives a bigger number for IC50: 1 or 2 ? // respond with label for picked entry
Result: 1
(1: 62 nM, 2: 0.21 nM)
